Tested on: MS2 coat protein
Assay: apparent KD of MS2 coat protein; designed switch direction (-1 OFF switch, 1 ON switch): -1; higher = weaker reporter binding
Conditions: input ligand: FMN 200 uM
// class assignment uses apparent KD of MS2 coat protein with these ranges: bucket A (below 20 nM), bucket B (20 nM to below 100 nM), bucket C (100 nM or more)

record-sequence | tested-on | category-label
GACUGUCGAGAGGAUAUCUUUCCCAAGCGGGUCAGAGAAGGCUUGACAUGAGGAUCACCCAUGUUGAUUGCUAG [EX6 C.23] (Eterna round: R97, puzzle: Exclusion 6) | MS2 coat protein | bucket C

Task: Which class is correct for the following sequence? GCUGCACAUGUAGGAUAUCUGCACGUUUAGUGCAGAGAAGGACAUGAGGAUCACCCAUGUAGAUCAGCAGCAAUUAAUUUAAUU [ENG1/6-A3] (Eterna round: R96, puzzle: Exclusion NG 1)
Result: bucket C

Task: And CCAUAUAACUGAGGAUAUCAUCGCCACUGACGUUGAGAAGGCAGACAUGAGGAUCACCCAUGUGAUUUCUCAAUAUUAUACAUC [Prohibition 79 - Jieux - Exclusion NG 1] (Eterna round: R96, puzzle: Exclusion NG 1) ?
Result: bucket C

Task: And UAAAUUGCAAGCAGAUCCUACAUGAGGAUCACCCAUGUGCUCUGAAAUAACGCAGAAUUACUGCGAGCUCGUCUUAU [Winner reversed engineered 26] (Eterna round: R97, puzzle: Sensor, turn-off variant 1) ?
Result: bucket B

Task: And CCACGACAUGAGGAUCACCCAUGUGAGGAUAUGGCCUGAAAAGCGUGAGCAGUUUGUAUCAGAAGGCGCGUGGG [salish99_ex1_r4_065] (Eterna round: R97, puzzle: Exclusion 1) ?
Result: bucket B

Task: And UUGUAGUGAGGAUAUAUAUAGUGGUUUUAUUAAUUUUUAUUACUUGAGGAUCACCCAAGUAGAAGGCGCAAAGU [JR_Ex2_Sub071] (Eterna round: R97, puzzle: Exclusion 2) ?
Result: bucket A

Task: And GAAUAGCAAGCGAGAUCCCACAUGAGGAUCACCCAUGUGCUCGUCUUAUAAAGUACUGUGACGAUAGUCACGGUACA [Mat - Sensor, turn-off var - Eli Mod - D13] (Eterna round: R97, puzzle: Sensor, turn-off variant 1) ?
Result: bucket A

Task: And GAGUGCUGAGGAUAUACAUGAGGAUCACCCAUGUACUUCAGCUAGGAGACUAGCAUUGGUAGAAGGCAGUACUC [Mod of lroppy 22 - Jieux - Exclusion 3] (Eterna round: R97, puzzle: Exclusion 3) ?
Result: bucket B

Task: And UGGCUACAUGAGGAUCACCCAUGUCAGGAUAUGCCGUUGAAUUGACAUCGACGUACGGGUAGAAGGGACUGCGU [1st #10] (Eterna round: R97, puzzle: Exclusion 1) ?
Result: bucket B

Task: And CUGGAGUCAGGAUAUGACGCAGUCCGCCCAAAUAGCGGAAAUCAGAAGGGACUUGAGGAUCACCCAAGUAAAAG [Qubilexe] (Eterna round: R97, puzzle: Exclusion 4) ?
Result: bucket B

Task: And UUAAAACGUGUAGGAUAUGCGUGGCGAAGCUAUGCAGAAGGACAUGAGGAUCACCCAUGUUCCUGCGUCCGCGUACGGAUGCAA [JL Eng1 1.21 mod 2] (Eterna round: R96, puzzle: Exclusion NG 1) ?
Result: bucket A

Task: And GUCGUGCGGCAGUGCUGUACGAGUACAUGAGGAUCACCCAUGUAGGAUAUGGUUCGUUUUGCGUGCUAGAAGGGCGUGCGUUGG [Excl-NG3-LRO21] (Eterna round: R96, puzzle: Exclusion NG 3) ?
Result: bucket A

Task: And CAGUACUGAGGAUAUACAUGAGGAUCACCCAUGUGUUCCAGCUAGGAGACUAGCAUAUGUAGAAGGCAGUACUG [jl-ex3-4.03 salish99 mod] (Eterna round: R97, puzzle: Exclusion 3) ?
Result: bucket C

Task: And UUCACAUGGACAUGAGAUCACAUGAGGAUCACCCAUGUGAAUAACAAGCUUUUUGUUCGUCUUAUGUCCAAUAAUAG [Stov1/14-D3] (Eterna round: R97, puzzle: Sensor, turn-off variant 1) ?
Result: bucket A

Task: And AUAUGUGCGAGAGGAUAUCGUGUACAAAGUACACGAGAAGGCUUCACAUGAGGAUCACCCAUGUACCGAGGUGAAACACCUUGA [Omei Exc(NG)1 Bv5] (Eterna round: R96, puzzle: Exclusion NG 1) ?
Result: bucket C

Task: And ACUUAUAGAGGAUAUACAGAAUAUUACAUGAGGAUCACCCAUGUUCUUCAAUGUAUAUAUGUAGAAGGCUAAGGUU [Mat - Exclusion 5 - JL Mod - D7] (Eterna round: R97, puzzle: Exclusion 5) ?
Result: bucket C
